test: chemical genetic growth profiling, strain panel (AID 1159580);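 note: tested at 20 µM; growth read once vehicle control cultures reached saturation at 30 °C; 1 = growth at the plate median or of vehicle wells; lower values mean less growth of the strain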; conditions: S. cerevisiae deletion strains, growth OD, locus YNL153C, strain GIM3, hits give low values
Among all 5,500 compounds or so, about 2,000 (36%) were called active. Inconclusive results (about 18%) are left out. Some of the results follow.
Each entry below lists one item and its recorded normalized growth value.
Give the value as a plain number.

CC1(C)C(O)CC(O)C2(C)C1CC(O)C1(C)C2CCC2(C)C(c3ccoc3)OC(=O)C3OC321 (centres undefined)    1.01

# context switch: different compound, same normalized growth
Ask: I am curious: what normalized growth value has been reported for COc1c(Cl)ccc(Cl)c1C(=O)O ?
Result: 1.01

----------
experiment: chemical genetic growth profiling, strain panel (AID 1159580);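 note: tested at 20 µM; growth read once vehicle control cultures reached saturation at 30 °C; 1 = growth at the plate median or of vehicle wells; lower values mean less growth of the strain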; conditions: S. cerevisiae deletion strains, growth OD, locus YGR040W, strain KSS1
The whole screen tested about 5,500 compounds, of which about 2,000 (36%) were called active. Roughly 18% stayed inconclusive and do not appear here. Rule as the data show it: active = normalized growth mostly below about 0.91 (no sharp cut-off); inconclusive = no clear call, values can overlap the other calls; inactive = mostly above about 0.92. The list shows a part of the results.
Answer with one of the outcomes Y = active, N = inactive

Cc1ccc(S(=O)(=O)Nc2ccc(Oc3ccc(F)cc3)cc2)cc1    N
CSC(=NNc1ccccc1)NC(=O)c1c(Cl)cccc1Cl    N
O=C1/C(=C/c2cccs2)COc2ccccc21    N

Ask: Entry COc1ccc(C(=O)NCc2csc3ccc(Cl)cc23)cc1OC : call = ?
Result: N

Ask: Entry NNC(=O)c1csc(Cc2c(Cl)sc3ccc(Cl)cc23)n1 : call = ?
Result: N

Ask: Entry O=C1/C(=C/c2ccc(C(F)(F)F)cc2)COc2ccccc21 : call = ?
Result: N

Ask: Entry COc1cc(CC/C(C)=N/O)ccc1OCc1ccc(Cl)cc1Cl : call = ?
Result: N

Ask: Entry O=C1CSC(c2ccc(C(F)(F)F)cc2)N1c1ccc(C(F)(F)F)cc1 (stereo unspecified) : call = ?
Result: N

Ask: Entry CNC(=O)n1nc(C)c(Cc2csc3ccc(Cl)cc23)c1C : call = ?
Result: N

Ask: Entry CS(=O)(=O)/C(C#N)=C/c1ccccc1OCc1c(Cl)cccc1Cl : call = ?
Result: N

Ask: Entry Cc1c(S(=O)(=O)c2ccc(Cl)cc2)csc1C(=O)NNc1cccc(Cl)c1 : call = ?
Result: N

Ask: Entry CC1(C)c2ccccc2N(CCC(N)=O)C12C=Cc1c(ccc3ccccc13)O2 (stereo unspecified) : call = ?
Result: N

Ask: Entry CC1C/C(=N/Nc2ccc(Br)cc2)c2cc(Cl)ccc2S1 (stereo unspecified) : call = ?
Result: Y

Ask: Entry CC1C/C(=N/Nc2ccc(Br)cc2)c2cc(Cl)ccc2S1(=O)=O (stereo unspecified) : call = ?
Result: N

Ask: Entry O=C(CCn1c(=O)oc2ccccc21)Sc1ccc(C(F)(F)F)cc1 : call = ?
Result: N

Ask: Entry O=C(CCn1c(=O)oc2ccccc21)Sc1ccc(Cl)cc1Cl : call = ?
Result: Y

----------
Each entry below lists one item and its recorded normalized growth value.
experiment: chemical genetic growth profiling, strain panel (AID 1159580);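 note: tested at 20 µM; growth read once vehicle control cultures reached saturation at 30 °C; 1 = growth at the plate median or of vehicle wells; lower values mean less growth of the strain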; settings: S. cerevisiae deletion strains, growth OD, locus YLR262C, strain YPT6, hits give low values
The campaign covered roughly 5,500 compounds. About 2,000 (36%) were called active. Another 18% or so got no clear call; they are omitted. The list shows a part of the results.

CCC(=O)c1ccc2c(c1)N(CC(C)N(C)C)c1ccccc1S2 (stereo not drawn)    1.35 (inactive)
Cc1c(S(=O)(=O)c2ccc(Cl)cc2)csc1C(=O)Nc1ccc(N2CCOCC2)c(Cl)c1    1.12 (inactive)
CC(C)CCCC(C)C1CCC2C3CC[C@H]4CCCC[C@]4(C)C3CC[C@]12C (stereo partly drawn)    0.945 (inactive)
COc1cc2c(cc1-c1cc3cc4ccoc4cc3oc1=O)OCO2    1.19 (inactive)
COc1cc(OC)c2c3c1C(=O)c1c(OC)cc(C)c4c(OC)cc(c-3c14)C(C)(C)C2=O    0.995 (inactive)
C[C@H](CCC(=O)O)[C@H]1CCC2C3C(CC[C@@]21C)[C@@]1(C)CC[C@@H](O)C[C@H]1C[C@@H]3O (stereo partly drawn)    0.776 (inactive)
CC(=O)Nc1ccc(S(=O)(=O)NC2Cc3ccccc3C2)cc1    1.03 (inactive)
COc1ccc(-c2ccc(C=C(C#N)C#N)s2)cc1    0.832 (inactive)
Cc1ccc2cc(NC(=O)c3ccco3)ccc2n1    1.01 (inactive)
COC(=O)CCC(C)C1CCC2C3CC[C@@H]4C[C@H](O)CC[C@]4(C)C3C[C@H](O)[C@]12C (stereo partly drawn)    0.792 (inactive)

# context switch: different molecule, same normalized growth
Ask: I am curious: what normalized growth value has been reported for CC(CN(C)C)CN1c2ccccc2Sc2ccccc21 (stereo not drawn) ?
Result: 1.44 [resistant] (active)
